- measured_on: Tyrosine-protein kinase Fyn (Homo sapiens, UniProt P06241)
- Sequence (P06241 whole entry): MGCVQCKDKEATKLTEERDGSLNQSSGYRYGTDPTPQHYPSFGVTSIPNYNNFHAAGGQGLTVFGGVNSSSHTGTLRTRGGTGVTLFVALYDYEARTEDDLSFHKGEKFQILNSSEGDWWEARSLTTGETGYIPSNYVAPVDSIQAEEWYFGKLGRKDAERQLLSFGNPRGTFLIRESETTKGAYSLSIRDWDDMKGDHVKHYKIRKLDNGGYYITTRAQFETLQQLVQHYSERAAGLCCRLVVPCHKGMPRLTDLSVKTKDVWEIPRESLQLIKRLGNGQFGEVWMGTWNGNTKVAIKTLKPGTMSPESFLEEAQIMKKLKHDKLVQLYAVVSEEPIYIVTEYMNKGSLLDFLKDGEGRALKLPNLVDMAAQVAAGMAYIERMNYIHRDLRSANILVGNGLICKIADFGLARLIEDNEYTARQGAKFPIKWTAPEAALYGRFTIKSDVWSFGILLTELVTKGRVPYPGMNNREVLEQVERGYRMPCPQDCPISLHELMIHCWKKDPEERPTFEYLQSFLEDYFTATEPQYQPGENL
- assay_text: biochemical; note: in other assays of this panel Not Active means under 50% inhibition at 10 µM
- Format: cell-based, Insect cells
- experimental_parameters: insect cells
endpoint_name: IC50

INSERT INTO assay_data (molecule, result) VALUES
  ('C[C@H](CS)C(=O)N1CCC[C@H]1C(=O)O', 'Not Active'),
  ('N[C@@H]1[C@H]2CN(c3nc4c(cc3F)c(=O)c(C(=O)O)cn4-c3ccc(F)cc3F)C[C@@H]12', 'Not Active'),
  ('Cn1ccnc1S', 'Not Active'),
  ('O=c1[nH]c(=O)n([C@H]2C[C@H](O)[C@@H](CO)O2)cc1I', 'Not Active'),
  ('Nc1c(Br)cc(Br)cc1CN[C@H]1CC[C@H](O)CC1', 'Not Active'),
  ('CN(C)CCCN1c2ccccc2Sc2ccccc21', 'Not Active'),
  ('COc1cc2c3cc1Oc1cc(ccc1O)C[C@@H]1c4c(cc(OC)c(O)c4Oc4ccc(cc4)C[C@@H]3N(C)CC2)CC[N+]1(C)C.[Cl-]', 'Not Active'),
  ('Cc1cc(C2CCCCC2)n(O)c(=O)c1', 'Not Active'),
  ('Cc1noc(NS(=O)(=O)c2ccc(N)cc2)c1C', 'Not Active'),
  ('CC(C)C(=O)Nc1ccc([N+](=O)[O-])c(C(F)(F)F)c1 [FLUTAMIDE]', 'Not Active'),
  ('CCn1cc(C(=O)O)c(=O)c2cc(F)c(N3CCNCC3)cc21', 'Not Active'),
  ('CC1(C)S[C@@H]2[C@H](NC(=O)Cc3ccccc3)C(=O)N2[C@H]1C(=O)O', 'Not Active'),
  ('C=CCC1(C(C)CCC)C(=O)NC(=O)NC1=O (stereo not given)', 'Not Active'),
  ('Cc1nc2n(c(=O)c1CCN1CCC(c3noc4cc(F)ccc34)CC1)CCCC2', 'Not Active'),
  ('c1ccc([C@H]2CN3CCSC3=N2)cc1', 'Not Active'),
  ('C=C(C)C1(O)OC(=O)C=C1OC (stereo not given)', 'Not Active'),
  ('CCOC(=O)C1=C(COCCN)NC(C)=C(C(=O)OC)C1c1ccccc1Cl (stereo not given)', 'Not Active'),
  ('O=c1oc2ccccc2c(O)c1Cc1c(O)c2ccccc2oc1=O', 'Not Active'),
  ('CCC1(c2ccc(N)cc2)CCC(=O)NC1=O (stereo not given) [AMINOGLUTETHIMIDE]', 'Not Active'),
  ('NC1=NC(=O)C(c2ccccc2)O1 (stereo not given)', 'Not Active');

====

- measured_on: Cytochrome P450 2A6 (Homo sapiens, UniProt P11509)
- Sequence (P11509 whole entry): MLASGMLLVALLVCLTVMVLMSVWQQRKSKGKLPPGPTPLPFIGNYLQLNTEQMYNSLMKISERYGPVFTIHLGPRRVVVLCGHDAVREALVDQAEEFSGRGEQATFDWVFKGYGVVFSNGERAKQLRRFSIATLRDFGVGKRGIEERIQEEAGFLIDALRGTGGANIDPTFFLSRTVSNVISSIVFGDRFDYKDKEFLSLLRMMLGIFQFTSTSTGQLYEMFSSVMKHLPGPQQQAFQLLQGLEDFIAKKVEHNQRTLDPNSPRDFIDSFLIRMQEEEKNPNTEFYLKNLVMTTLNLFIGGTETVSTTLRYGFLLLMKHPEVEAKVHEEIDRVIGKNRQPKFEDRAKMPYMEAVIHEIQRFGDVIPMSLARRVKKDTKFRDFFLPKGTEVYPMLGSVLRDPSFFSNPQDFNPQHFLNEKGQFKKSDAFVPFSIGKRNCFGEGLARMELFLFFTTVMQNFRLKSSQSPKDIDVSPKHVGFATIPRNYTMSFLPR
- experimental_parameters: bti-tn-5b1-4
*1 amine or outer side, *2 acyl side, *3 side chain or, on linkers, in order; H or OH if unused. Where a SMILES comes first, the peptide text is derived from it. Bridges are numbered along the chain shown (N, C = ends). Roman numbers before positions name the chains, in order. [ ]: non-standard residue; d: D form. Actinocin(1to9) = Cc1c2oc3c(C)ccc(C(=O)[*:2])c3nc-2c(C(=O)[*:1])c(N)c1=O; NMeV = CN[C@H](C(=O)O)C(C)C; Sar = CNCC(=O)O
endpoint_name: IC50

INSERT INTO results (molecule, endpoint_name, result) VALUES
  ('O=C1CC[C@@H](N2C(=O)c3ccccc3C2=O)C(=O)N1', 'IC50', 'Not Active'),
  ('Cc1c(C)c2c(c(C)c1O)CCC(C)(COc1ccc(CC3SC(=O)NC3=O)cc1)O2 (stereo not drawn) [TROGLITAZONE]', 'IC50', 'Not Active'),
  ('Cc1c2oc3c(C)ccc(C(=O)N[C@@H]4C(=O)N[C@H](C(C)C)C(=O)N5CCC[C@H]5C(=O)N(C)CC(=O)N(C)[C@@H](C(C)C)C(=O)O[C@@H]4C)c3nc-2c(C(=O)N[C@@H]2C(=O)N[C@H](C(C)C)C(=O)N3CCC[C@H]3C(=O)N(C)CC(=O)N(C)[C@@H](C(C)C)C(=O)O[C@@H]2C)c(N)c1=O [DACTINOMYCIN] (I: T[dV]P[Sar][NMeV] / II: T[dV]P[Sar][NMeV]; ester I:1-I:C, II:1-II:C; linker I:N-II:N via Actinocin(1to9))', 'IC50', 'Not Active'),
  ('CC(NC(C)(C)C)C(=O)c1cccc(Cl)c1 (stereo not drawn) [BUPROPION]', 'IC50', 'Not Active'),
  ('Nc1nc2c(ncn2COCCO)c(=O)[nH]1 [ACYCLOVIR]', 'IC50', 'Not Active'),
  ('NC(=O)N1c2ccccc2CCc2ccccc21', 'IC50', 'Not Active'),
  ('CCCC1O[C@@H]2C[C@H]3[C@@H]4CCC5=CC(=O)C=C[C@]5(C)[C@H]4[C@@H](O)C[C@]3(C)[C@]2(C(=O)CO)O1 (stereo partly drawn) [BUDESONIDE]', 'IC50', 'Not Active'),
  ('CCCCc1oc2ccccc2c1C(=O)c1cc(I)c(OCCN(CC)CC)c(I)c1 [AMIODARONE]', 'IC50', 'Not Active'),
  ('CC(C)[C@@]1(NC(=O)[C@@H]2C[C@@H]3c4cccc5[nH]cc(c45)C[C@H]3N(C)C2)O[C@@]2(O)[C@@H]3CCCN3C(=O)[C@H](Cc3ccccc3)N2C1=O.CS(=O)(=O)O [DIHYDROERGOCRISTINE MESYLATE]', 'IC50', 'Not Active'),
  ('O=C(CCCN1CC=C(n2c(=O)[nH]c3ccccc32)CC1)c1ccc(F)cc1 [DROPERIDOL]', 'IC50', 'Not Active'),
  ('CN(C)C(=O)Oc1cc(OC(=O)N(C)C)cc(C(O)CNC(C)(C)C)c1 (stereo not drawn) [BAMBUTEROL]', 'IC50', 'Not Active'),
  ('CCC(C)n1ncn(-c2ccc(N3CCN(c4ccc(OCC5COC(Cn6cncn6)(c6ccc(Cl)cc6Cl)O5)cc4)CC3)cc2)c1=O (stereo not drawn) [ITRACONAZOLE]', 'IC50', 'Not Active'),
  ('C1CCC(C(CC2CCCCN2)C2CCCCC2)CC1 (stereo not drawn) [PERHEXILINE]', 'IC50', 'Not Active');
